# Assay Info: The drug is tested on Z-026 corresponding to metagenome with ENA study accession number: PRJEB37062 and ENA sample accession number: ERS12561825 for biotransformation under anaerobic condition. The drug concentrations were measured over 9 timepoints collected between 0 and 24 hours of incubation by liquid-chromatography-coupled mass spectrometry (LC–MS); further: call rule not given here
# Measurement Conditions: 2 µM
Endpoint: Bacterial Biotransformation

Compound	Bacterial Biotransformation
Cc1nc(-c2ccc(OCC(C)C)c(C#N)c2)sc1C(=O)O	Compound NOT metabolized
Cc1ccc(-c2nc3ccc(C)cn3c2CC(=O)N(C)C)cc1	Compound NOT metabolized
CS(=O)(=O)O.OC(CCN1CCCCC1)(c1ccccc1)c1ccccc1 [PRIDINOL METHANESULFONATE]	Compound NOT metabolized
CCN(CC)C(=O)/C(C#N)=C/c1cc(O)c(O)c([N+](=O)[O-])c1	Compound metabolized
COc1c(C)c2c(c(O)c1C/C=C(\C)CCC(=O)OCCN1CCOCC1)C(=O)OC2 [MYCOPHENOLATE MOFETIL]	Compound metabolized

// query Bacterial Biotransformation value for entry CCC(COC(=O)c1cc(OC)c(OC)c(OC)c1)(c1ccccc1)N(C)C.O=C(O)/C=C\C(=O)O (centres undefined)
Compound NOT metabolized

// query Bacterial Biotransformation value for entry Br.CN(C)CCCC1(c2ccc(F)cc2)OCc2cc(C#N)ccc21 (centres undefined) [CITALOPRAM HYDROBROMIDE]
Compound NOT metabolized

// query Bacterial Biotransformation value for entry CCN1CCCC1CNC(=O)c1cc(S(N)(=O)=O)ccc1OC (centres undefined) [SULPIRIDE]
Compound NOT metabolized

// query Bacterial Biotransformation value for entry NS(=O)(=O)c1cc2c(cc1Cl)N=C(CSCc1ccccc1)NS2(=O)=O [BENZTHIAZIDE]
Compound NOT metabolized

// query Bacterial Biotransformation value for entry `CCCCCOC(=O)Nc1nc(=O)n([C@@H]2O[C@H](C)[C@@H](O)[C@H]2O)cc1F`
Compound NOT metabolized

====

# Assay Info: The drug is tested on WLS-082 corresponding to human gut metagenome with ENA study accession number: PRJEB37062 and ENA sample accession number: ERS12561751 for biotransformation under anaerobic condition. The drug concentrations were measured over 9 timepoints collected between 0 and 24 hours of incubation by liquid-chromatography-coupled mass spectrometry (LC–MS)
# Measurement Conditions: 2 µM
Where a SMILES comes first, the peptide text is derived from it. [ ]: non-standard residue; d: D form. pGlu = O=C1CC[C@@H](C(=O)O)N1; Thz = O=C(O)[C@@H]1CSCN1
Endpoint: Bacterial Biotransformation

These solved cases illustrate the format of a correct answer.
Molecule	Bacterial Biotransformation
CN(C)CCC=C1c2ccccc2C=Cc2ccccc21	Compound metabolized
CS(=O)(=O)O.O.O.O.O=C1Cc2cc(CCN3CCN(c4nsc5ccccc45)CC3)c(Cl)cc2N1 [ZIPRASIDONE MESYLATE]	Compound metabolized
COc1ccccc1N1CCN(CC(O)COc2cccc3ccccc23)CC1 (centres undefined)	Compound NOT metabolized
OCCN1CCN(CCCN2c3ccccc3Sc3ccc(C(F)(F)F)cc32)CC1	Compound metabolized
CNC(=C[N+](=O)[O-])NCCSCc1ccc(CN(C)C)o1	Compound metabolized
O=C1CC[C@@H](C(=O)N2CSC[C@H]2C(=O)O)N1 [PIDOTIMOD] ([pGlu]-[Thz]-OH)	Compound NOT metabolized

// query Bacterial Biotransformation value for entry `CN1CCN(C(=O)O[C@H]2c3nccnc3C(=O)N2c2ccc(Cl)cn2)CC1`
Compound NOT metabolized

// query Bacterial Biotransformation value for entry CC(C(=O)O)c1ccc2c(c1)Cc1cccnc1O2 (centres undefined)
Compound metabolized

// query Bacterial Biotransformation value for entry CNS(=O)(=O)Cc1ccc2[nH]cc(CCN(C)C)c2c1.O=C(O)CCC(=O)O [SUMATRIPTAN SUCCINATE]
Compound NOT metabolized

// query Bacterial Biotransformation value for entry `C#C[C@]1(O)CC[C@H]2[C@@H]3CCC4=CC(=O)CC[C@@H]4[C@H]3CC[C@@]21CC`
Compound metabolized

====

# Measurement Conditions: human gut metagenome, 24 h, 2 µM
Endpoint: Bacterial Biotransformation

Compound	Bacterial Biotransformation
COc1c2occc2cc2ccc(=O)oc12 [METHOXSALEN]	Compound metabolized
COCCc1ccc(OCC(O)CNC(C)C)cc1.COCCc1ccc(OCC(O)CNC(C)C)cc1.O=C(O)C(O)C(O)C(=O)O (stereo not given) [METOPROLOL TARTRATE]	Compound metabolized
CCN(CC)CCNC(C(=O)OCCC(C)C)c1ccccc1.Cl.Cl (stereo not given)	Compound NOT metabolized
CN1C(C(=O)Nc2ccccn2)=C(O)c2sccc2S1(=O)=O [TENOXICAM]	Compound NOT metabolized
CCC(COC(=O)c1cc(OC)c(OC)c(OC)c1)(c1ccccc1)N(C)C.O=C(O)/C=C\C(=O)O (stereo not given)	Compound metabolized

// query Bacterial Biotransformation value for entry CN(C)CCc1c[nH]c2ccc(Cn3cncn3)cc12.O=C(O)c1ccccc1 [RIZATRIPTAN BENZOATE]
Compound NOT metabolized

// query Bacterial Biotransformation value for entry CC(=O)CC(c1ccccc1)c1c(O)c2ccccc2oc1=O (stereo not given) [WARFARIN]
Compound metabolized

// query Bacterial Biotransformation value for entry CCC(=O)NCC[C@@H]1CCc2ccc3c(c21)CCO3 [RAMELTEON]
Compound NOT metabolized

// query Bacterial Biotransformation value for entry CCN(CC)CCNC(=O)c1cc(Cl)c(N)cc1OC [METOCLOPRAMIDE]
Compound NOT metabolized

// query Bacterial Biotransformation value for entry O=c1[nH]c2ccccc2n1C1CCN(CCCC(c2ccc(F)cc2)c2ccc(F)cc2)CC1 [PIMOZIDE]
Compound NOT metabolized

// query Bacterial Biotransformation value for entry O=C(O)COCCN1CCN(C(c2ccccc2)c2ccc(Cl)cc2)CC1 (stereo not given) [CETIRIZINE]
Compound metabolized

// query Bacterial Biotransformation value for entry CN(C)CCC=C1c2ccccc2C=Cc2ccccc21 [CYCLOBENZAPRINE]
Compound NOT metabolized

// query Bacterial Biotransformation value for entry NC12CC3CC(CC(C3)C1)C2 [AMANTADINE]
Compound NOT metabolized

// query Bacterial Biotransformation value for entry Cc1ccc(S(=O)(=O)NC(=O)NN2CC3CCCC3C2)cc1 (stereo not given) [GLICLAZIDE]
Compound metabolized

// query Bacterial Biotransformation value for entry CC(C(=O)O)c1ccc2c(c1)Cc1cccnc1O2 (stereo not given) [PRANOPROFEN]
Compound metabolized

// query Bacterial Biotransformation value for entry CCN1CCCC1CNC(=O)c1cc(S(N)(=O)=O)ccc1OC (stereo not given) [SULPIRIDE]
Compound NOT metabolized

// query Bacterial Biotransformation value for entry C[C@@H]1C[C@H]2[C@@H]3CCC4=CC(=O)C=C[C@]4(C)[C@@]3(F)[C@@H](O)C[C@]2(C)[C@@]1(O)C(=O)CO [DEXAMETHASONE]
Compound NOT metabolized

// query Bacterial Biotransformation value for entry O=P(O)(O)O.c1ccc(CN(CC2=NCCN2)c2ccccc2)cc1 [ANTAZOLINE PHOSPHATE]
Compound NOT metabolized

// query Bacterial Biotransformation value for entry COc1ccc2c(c1OC)C(=O)O[C@@H]2[C@H]1c2c(cc3c(c2OC)OCO3)CCN1C [NOSCAPINE]
Compound NOT metabolized

// query Bacterial Biotransformation value for entry OC(CCN1CCCCC1)(c1ccccc1)C1CCCCC1 (stereo not given) [TRIHEXYPHENIDYL]
Compound NOT metabolized

====

# Measurement Conditions: human gut metagenome, 24 h, 2 µM
Where a SMILES comes first, the peptide text is derived from it. [ ]: non-standard residue; d: D form. pGlu = O=C1CC[C@@H](C(=O)O)N1; Thz = O=C(O)[C@@H]1CSCN1
Endpoint: Bacterial Biotransformation

These solved cases illustrate the format of a correct answer.
Compound	Measured Value
O=C1CC[C@@H](C(=O)N2CSC[C@H]2C(=O)O)N1 [PIDOTIMOD] ([pGlu]-[Thz]-OH)	Compound NOT metabolized
CS(=O)(=O)O.O.O.O.O=C1Cc2cc(CCN3CCN(c4nsc5ccccc45)CC3)c(Cl)cc2N1 [ZIPRASIDONE MESYLATE]	Compound metabolized
CN(C)CCc1c[nH]c2ccc(Cn3cncn3)cc12.O=C(O)c1ccccc1 [RIZATRIPTAN BENZOATE]	Compound NOT metabolized
CS(=O)(=O)O.OC(CCN1CCCCC1)(c1ccccc1)c1ccccc1 [PRIDINOL METHANESULFONATE]	Compound metabolized
CC(C)NCC(O)c1ccc(NS(C)(=O)=O)cc1 (stereo unspecified)	Compound NOT metabolized

Please look at the following compound next.
// query Bacterial Biotransformation value for entry `Nc1ccc(/N=N/c2ccccc2)c(N)n1`
Compound metabolized

====

# Measurement Conditions: human gut metagenome, 24 h, 2 µM

Compound	Bacterial Biotransformation
Cc1ccc(-c2cc(C(F)(F)F)nn2-c2ccc(S(N)(=O)=O)cc2)cc1 [CELECOXIB]	Compound NOT metabolized
CN1CCN(C2=Nc3cc(Cl)ccc3Nc3ccccc32)CC1 [CLOZAPINE]	Compound NOT metabolized
OCCOCCN1CCN(C2=Nc3ccccc3Sc3ccccc32)CC1 [QUETIAPINE]	Compound NOT metabolized
